This listing pairs binders with measured EC50, ADCC Reporter Bioassay (luciferase, Jurkat FcγRIIIa V158/NFAT effector cells).
# Target Desc: human claudin 18.2 (CLDN18.2) (human)
# Assay Overview: cell-based or functional assay
# unit: pM | format: bare number

# Binder, Recorded Number
measured = [
    ("72C1B6A3 chimeric antibody (antibody, V domains shown) VH: QVQLQQSGGELVKPGASVKMSCKAFGYTFTTYPIEWMKQNHGKSLEWIGNFHPYNDDTKYNEKFKGKAKLTVEKSSSTVYLEVSRLTSDDSAVYYCARRAYGYPYAMDYWGQGTSVTVSS VL: DIVMTQSPSSLTVTAGEKVTMSCKSSQSLLNSGNQKNYLTWYQQRPGQPPKLLIYRASSRESGVPVRFTGSGSGTDFTLTISSVQAEDLAVYYCQNDYIYPYTFGGGTKLEMN", 46.3),
    ("4F11E2 chimeric antibody (antibody, V domains shown) VH: DVQLVESGGGLVQPGGSRKLSCAASGFTFSTFGMHWVRQAPEKGLEWVAYITSGNSPIYFTDTVKGRFTISRDNPKNTLFLQMTSLGSEDTAVYYCARSSYYGNSMDYWGQGTSVTVSS VL: DIVMTQSPSSLTVTAGEKVTLTCRSSQSLLNSGNRKNYLTWYQQIPGQPPKLLIYWASTRESGVPDRFTGSGSGTYFTLTISSVQAEDLAVYYCQNAYSYPFTFGSGTKLEKK", 22.2),
]

In the following, a different binder is considered.
# lookup: EC50, ADCC Reporter Bioassay (luciferase, Jurkat FcγRIIIa V158/NFAT effector cells) of 120B7B2 chimeric antibody (antibody, V domains shown) VH: EVQLQQSGPELVKPGASVKMSCKASGYTFTGYIIQWMKQKPGLGLEWIGFINPYNDGTKYNEQFKGKATLTSDKSSNAAYMELSSLTSEDSAVYYCARAYFGNSFAYWGQGTLVTVSA VL: DIVMTQSPSSLTVTAGEKVTMSCKSSQSLLNSGNQKNYLTWYQQRPGQPPKLLMYWASTRESGVPDRFTGSGSGTDFTLTISSGQAEDLAIYFCQNGYYFPFTFGSGTKLETK 5.81
